- System: VDR:RXRa (NR concentration 270 nM, RXRa partner concentration 90 nM)
- procedure.summary: PBM binding z-score (relative to random genomic background probes); higher = stronger binding; sequences stand for … in GC…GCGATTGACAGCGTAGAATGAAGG
Hi, to clarify the labels: rule met covers PBM binding z-score from 1 upward, rule not met covers anything below 1.

## Task Tell me whether PBM binding z-score is at least 1 here: GCTGCTAGGTCAGCTTGGTCAGCTAACGGGTACG
## Result rule not met

## Task Is the recorded value of PBM binding z-score equal to or greater than 1 for this sequence? TCTATTAGTTGCTTAGGGCAACCGAAACAGCGGA
## Result rule not met

## Task Can TCTAGCAGGCCAGAGGGTGACTCAAGAGGTACGG be said to have PBM binding z-score at or above 1?
## Result rule not met

## Task Decide: is the reported value of PBM binding z-score for CGAACTAGGTCAAGCACAGTGAATCTCCGCACGC equal to or greater than 1?
## Result rule met

## Task # bool: PBM binding z-score of GGAACGAGGGCATACGAGTTGATAGCATGGCGAT >= 1
## Result rule met

## Task Check this sequence for PBM binding z-score at or above 1: CCTGCTGGGCCACGAAAGGTCATTGATTCAGTGA
## Result rule met

## Task Check this sequence for PBM binding z-score at or above 1: CCTACTGGGCCATGGTCATTGATCAGTCAAAGCA
## Result rule not met

## Task Would you say ATTTCTAGGTAAAGATAGTTCAGTGAATGCAAAT shows PBM binding z-score at minimum 1?
## Result rule met

## Task Check this sequence for PBM binding z-score at or above 1: CAGCCTAGGTCAGGGCCAGTATCGGAGGAACGTT
## Result rule not met

## Task Hi team, for CAAACTAGGTCAAGGTCAAAATCGGTTTGTGCCA , is the recorded PBM binding z-score at or above 1?
## Result rule met

## Task Could you verify whether the entry CAAATTAGGTCACCGGAAGGTCAAAGTCCGCATG shows PBM binding z-score of no less than 1?
## Result rule met

## Task Exam item: decide whether the reported PBM binding z-score for ACAGACAGGTGAGGAAGGTAACTCAGGCTATCAT is at least 1.
## Result rule not met

## Task Record ACCTCTAGGTAAAGTTCAGTGAAAGATCGATAGA ; criterion: PBM binding z-score no lower than 1. Met?
## Result rule not met

## Task PBM binding z-score >= 1 for TCATCTAGGTAAAAGGTGAAAGTCGGTGTGGTAA ?
## Result rule met

## Task Test whether the sequence CGAACTAGGTCAATGACAGGACAGTGAATAGTAA records PBM binding z-score of 1 or higher.
## Result rule met

## Task I'd appreciate it if you could say whether ATAGGTAGGTTACATCCGGGTCATTCAGGCTATG has PBM binding z-score at least equal to 1.
## Result rule met

## Task Does the sequence CAAACTTGGTCACAGAGGTCAAAGTCCGTGCGTA have recorded PBM binding z-score that is 1 or more?
## Result rule met

## Task Does PBM binding z-score meet or surpass 1 for CATCAAAGTTCAAGGTAACGTAACAGAAAGCAGC ?
## Result rule met

## Task Given CTCGAAAGGTCGTGTTCAGGTGAGTATACCAAAC , state whether its PBM binding z-score is at least 1.
## Result rule met

## Task Could you tell me if the measured PBM binding z-score of GCGATTAGTTGAAAGGGCAACCGAATGATTCTCG reaches 1 or more?
## Result rule not met

## Task For this sequence, is measured PBM binding z-score 1 or higher? AATACAGGGTCACTAGGCCAGAGGAGGTACGAAT
## Result rule met

## Task Exam item: decide whether the reported PBM binding z-score for ACTCTTAGTTGACTTAGGGCAACCGATACGACGC is at least 1.
## Result rule not met

## Task Check this sequence for PBM binding z-score at or above 1: CGTGAAAGTTCAAGGTAACGTAACAGAAAGCAGC
## Result rule met
